meta.source: patent US8198273B2

Catalogue of IC50 readings, one per entry.
# assayed.system: B-Raf (Homo sapiens)
# Sequence (P15056 whole entry): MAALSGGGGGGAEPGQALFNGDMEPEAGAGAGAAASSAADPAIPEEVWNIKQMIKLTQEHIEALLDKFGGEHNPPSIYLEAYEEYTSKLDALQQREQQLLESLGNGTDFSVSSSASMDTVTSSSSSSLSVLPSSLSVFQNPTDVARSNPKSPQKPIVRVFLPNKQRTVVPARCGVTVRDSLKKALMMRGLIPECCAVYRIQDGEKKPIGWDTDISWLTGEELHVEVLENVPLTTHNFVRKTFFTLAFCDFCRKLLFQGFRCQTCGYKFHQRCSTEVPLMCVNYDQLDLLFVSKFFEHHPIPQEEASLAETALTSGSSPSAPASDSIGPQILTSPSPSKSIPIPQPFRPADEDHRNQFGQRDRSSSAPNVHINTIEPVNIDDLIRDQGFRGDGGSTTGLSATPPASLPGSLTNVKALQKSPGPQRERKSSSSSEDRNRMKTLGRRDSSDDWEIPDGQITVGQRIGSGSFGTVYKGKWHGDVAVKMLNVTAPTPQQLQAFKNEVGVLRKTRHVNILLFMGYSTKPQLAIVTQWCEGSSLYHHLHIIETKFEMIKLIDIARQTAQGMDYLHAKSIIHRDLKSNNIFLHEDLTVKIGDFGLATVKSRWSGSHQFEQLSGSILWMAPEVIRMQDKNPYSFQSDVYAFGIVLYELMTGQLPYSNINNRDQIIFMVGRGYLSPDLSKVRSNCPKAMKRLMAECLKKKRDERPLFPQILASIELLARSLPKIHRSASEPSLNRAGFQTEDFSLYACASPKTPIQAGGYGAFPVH

*Q* Fill in: IC50 of COc1ncc(-c2cnc3[nH]cc(C(=O)c4c(F)ccc(NS(=O)(=O)c5cccc(F)c5)c4F)c3c2)cn1 is ___
*A* < 10 nM

*Q* Follow-up item: COc1ccnc2[nH]cc(C(=O)c3c(F)ccc(NS(=O)(=O)c4ccccc4F)c3F)c12
*A* < 100 nM

*Q* What about this molecule? CCCS(=O)(=O)Nc1cccc(C(=O)c2c[nH]c3ncc(-c4cnc(N(C)C)nc4)cc23)c1F
*A* < 10 nM

*Q* Try the molecule N#Cc1ccnc2[nH]cc(C(=O)c3c(F)ccc(NS(=O)(=O)c4ccccc4F)c3F)c12
*A* < 10 nM

*Q* Same read-out for CCCS(=O)(=O)Nc1ccc(F)c(C(=O)c2c[nH]c3ncc(-c4cn[nH]c4)cc23)c1F ?
*A* < 10 nM

*Q* Also check CCCS(=O)(=O)Nc1ccc(F)c(C(=O)c2c[nH]c3ncc(-c4ccc(S(=O)(=O)N(C)C)cc4)cc23)c1F
*A* < 10 nM

*Q* Could you do the same for N#Cc1cnc2[nH]cc(C(=O)c3c(F)ccc(NS(=O)(=O)c4ccccc4F)c3F)c2c1 , please?
*A* < 100 nM

*Q* Queued: CCCc1ccc(-c2cnc3[nH]cc(C(=O)c4c(F)ccc(NS(=O)(=O)CCC)c4F)c3c2)cn1
*A* < 10 nM

*Q* Next molecule: CCCS(=O)(=O)Nc1ccc(F)c(C(=O)c2c[nH]c3ncc(-c4ccc(C(=O)NCC)nc4)cc23)c1F
*A* < 10 nM

*Q* What do we get for CCCS(=O)(=O)Nc1ccc(F)c(C(=O)c2c[nH]c3ncc(-c4ccc(NC(C)=O)nc4)cc23)c1F ?
*A* < 10 nM

*Q* Try N#Cc1cnc2[nH]cc(C(=O)c3cccc(NS(=O)(=O)c4ccccc4F)c3F)c2c1 next.
*A* < 100 nM

*Q* Please answer likewise for N#Cc1cnc2[nH]cc(C(=O)c3c(F)ccc(NS(=O)(=O)c4c(F)cccc4F)c3F)c2c1
*A* < 100 nM

*Q* How about this molecule: CCCS(=O)(=O)Nc1ccc(F)c(C(=O)c2c[nH]c3ncc(-c4ccc(C(=O)NC)nc4)cc23)c1F
*A* < 10 nM

*Q* Now the same for CCCS(=O)(=O)Nc1ccc(F)c(C(=O)c2c[nH]c3ncc(-c4ccc(N(C)C)nc4)cc23)c1F
*A* < 100 nM
